# experiment.notes: chemical genetic growth profiling, strain panel (AID 1159580);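 also: tested at 20 µM; growth read once vehicle control cultures reached saturation at 30 °C; 1 = growth at the plate median or of vehicle wells; lower values mean less growth of the strain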
# condition.notes: S. cerevisiae deletion strains, growth OD, locus YKL190W, strain CNB1, hits give low values
Hit rate of the full screen: of about 5,500 compounds, about 2,000 (36%) were called active. Not shown: some 18% with an inconclusive outcome. The list shows a part of the results.
Each entry below carries its reported normalized growth.
quantity.measured: normalized growth

| molecule | reported.value |
| --- | --- |
| C/C=C(\C)C(=O)O[C@H]1C[C@@H](OC(C)=O)[C@@]2(C(=O)OC)CO[C@@H]3C2[C@]12CO[C@](O)(C(=O)OC)[C@H]2[C@](C)(C12O[C@@]1(C)[C@H]1C[C@@H]2OC2OC=C[C@@]21O)[C@@H]3O (stereo partly drawn) | 0.997 |
| O=C(O[C@@H]1Cc2c(O)cc(O)cc2O[C@@H]1c1cc(O)c(O)c(O)c1)c1cc(O)c(O)c(O)c1 | 0.26 |
| CC(=O)Oc1cc(OC(C)=O)c2c(c1)O[C@H](c1ccc(OC(C)=O)c(OC(C)=O)c1)[C@@H](OC(C)=O)C2 | 0.997 |
| CN1CC(CO)=C[C@@H]2c3cccc4[nH]cc(c34)C[C@H]21 | 0.994 |
| O=C(NNC(=S)Nc1cccc(Cl)c1)c1ccncc1 | 1.01 |
| O=C(NNC(=S)Nc1cccc(Cl)c1)C1CC1 | 0.913 |
| COc1cc([C@@H]2c3cc4c(cc3C(OC3O[C@@H]5COC(C)O[C@H]5[C@H](O)[C@H]3O)C3COC(=O)[C@@H]32)OCO4)cc(OC)c1O (stereo partly drawn) | 1.02 |
| N#CCCN(CC1CCCO1)C(=S)Nc1cc(C(F)(F)F)cc(C(F)(F)F)c1 (stereo not drawn) | 1.02 |

###

# experiment.notes: chemical genetic growth profiling, strain panel (AID 1159580);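 also: tested at 20 µM; growth read once vehicle control cultures reached saturation at 30 °C; 1 = growth at the plate median or of vehicle wells; lower values mean less growth of the strain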
# condition.notes: S. cerevisiae deletion strains, growth OD, locus YIL125W, strain kgd1
Among all 5,500 compounds or so, about 2,000 (36%) were called active. About 18% were inconclusive and are not listed. No stated cut-off is given here; in the data, active means normalized growth mostly below about 0.91 (no sharp cut-off); inconclusive means no clear call, values can overlap the other calls; inactive means mostly above about 0.92. The list shows a part of the results.
Classes used: T = active, F = inactive

| molecule | class.name |
| --- | --- |
| c1ccc2c(c1)sc1ccccc12 | F |
| COc1ccc(C(CN(C)C)C2(O)CCCCC2)cc1 (stereo not drawn) | F |
| CN(C)CCN(Cc1cccs1)c1ccccn1 | F |
| Cc1ncc(CNC(=O)N(CCCl)N=O)c(N)n1 | F |
| COc1ccc(C(c2ccc(OC)cc2)C(Cl)(Cl)Cl)cc1 | F |
| CNCCC(Oc1ccc(C(F)(F)F)cc1)c1ccccc1 (stereo not drawn) | F |
| COc1ccc2c(c1)OC1(O)COc3cc(OC)c(OC)cc3C1=C2 (stereo not drawn) | F |
| Clc1ccc(C(c2ccc(Cl)cc2)C(Cl)(Cl)Cl)cc1 | F |
| CNC(=O)O/N=C(\C)SC | F |
| O=c1cccc2ccc(O)c(O)c2c1O | F |
| O=C1C(Cl)=C(Cl)C(=O)C(Cl)=C1Cl | T |
| CN(C)CCN(Cc1ccccc1)c1ccccn1 | F |
| CN1CC(CO)=C[C@@H]2c3cccc4[nH]cc(c34)C[C@H]21 | F |

###

# experiment.notes: chemical genetic growth profiling, strain panel (AID 1159580);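 also: tested at 20 µM; growth read once vehicle control cultures reached saturation at 30 °C; 1 = growth at the plate median or of vehicle wells; lower values mean less growth of the strain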
# condition.notes: S. cerevisiae deletion strains, growth OD, locus YNL071W, strain lat1
The whole screen tested about 5,500 compounds, of which about 2,000 (36%) were called active. Inconclusive results (about 18%) are left out. Rule as the data show it: active = normalized growth mostly below about 0.91 (no sharp cut-off); inconclusive = no clear call, values can overlap the other calls; inactive = mostly above about 0.92. Some of the results follow.
Classes used: TRUE for active, FALSE for inactive

| compound | class.name |
| --- | --- |
| COc1ccc([C@H]2Oc3c(I)c(OC)cc(OC)c3C[C@@H]2O)cc1OC | FALSE |
| CC[C@]1(O)CC2CN(CCc3c([nH]c4ccccc34)[C@@](C(=O)OC)(c3cc4c(cc3OC)N(C)[C@H]3[C@@](O)(C(=O)OC)[C@H](OC(C)=O)[C@]5(CC)C=CCN6CC[C@]43[C@@H]65)C2)C1 (stereo partly specified) | FALSE |
| Oc1cc(O)c2c(c1)O[C@H](c1ccc(O)c(O)c1)[C@H](O)C2 | FALSE |
| CNC(=O)O/N=C(\C)SC | FALSE |
| CCC(C)C(=O)O[C@@H]1C[C@@]2(C)[C@H](c3ccoc3)OC(=O)CC23OC2(C)OC34[C@H](OC(=O)C(C)C)[C@@]3(O)[C@@H](OC(=O)C5(C)OC5C)[C@@]5(C)C[C@]3(O)[C@@](C)([C@H]5CC(=O)OC)C14O2 (stereo partly specified) | FALSE |
| Cc1[nH]c2ccccc2c1CN(C)C | FALSE |
| O=C(Oc1cc(O)cc2c1C[C@@H](OC(=O)c1cc(O)c(O)c(O)c1)[C@@H](c1cc(O)c(O)c(O)c1)O2)c1cc(O)c(O)c(O)c1 | FALSE |
| c1ccc2c(c1)CCCC2C1=NCCN1 (stereo unspecified) | FALSE |
| O=C(O[C@@H]1Cc2c(O)cc(O)cc2O[C@@H]1c1ccc(O)c(O)c1)c1cc(O)c(O)c(O)c1 | FALSE |
| COC(=O)/C=C/C(C)=C/C=C/C(C)=C/C=C/C=C(C)/C=C/C=C(C)/C=C/C(=O)O | FALSE |
| C=C[C@@](C)(O)CCC1C(=C)C[C@H](O)C2C(C)(C)CCCC12C (stereo partly specified) | FALSE |
| c1ccc2c(c1)sc1ccccc12 | TRUE |
| COC(=O)C[C@H]1C2(C)CC34OC5(C)O[C@@]6([C@H](OC(C)=O)C(OC(C)=O)[C@]7(C)C(/C(=C(/O)C(C)C)C(=O)O[C@H]7c7ccoc7)[C@@]6(O5)[C@H](OC(C)=O)[C@@]3(O)C2OC(=O)C(C)C)[C@]14C (stereo partly specified) | FALSE |
| C=C[C@@](C)(O)CCC1C(=C)CCC2[C@@](C)(CO)CCC[C@]12C (stereo partly specified) | FALSE |
| COC(=O)C[C@H]1C2(C)CC34OC5(C)O[C@@]6([C@H](OC)C(OC(=O)C(C)C)[C@]7(C)C(/C(=C(/OC)C(C)C)C(=O)O[C@H]7c7ccoc7)[C@@]6(O5)[C@H](OC)[C@@]3(OC)C2OC(C)=O)[C@]14C (stereo partly specified) | FALSE |
| Oc1cc(O)c2c(c1)O[C@H](c1ccc(O)c(O)c1)[C@@H](O)C2 | FALSE |
